assay-name: ovarian cancer cell viability with rucaparib, profiling panel, oncology-focused library, rucaparib conditional (AID 1508598)
stated-conditions: patient-derived ovarian cancer cells, CellTiter-Glo viability, 144 h; at 0.0195 µM; OCI-C5x cells; without rucaparib; active compounds read low
# viability listing for each entry below
Give the quantity in %, number only.

Sample records with viability:
{"chemical-structure": "CN1CC[C@H](c2c(O)cc(O)c3c(=O)cc(-c4ccccc4Cl)oc23)[C@H](O)C1", "viability / %": 80}
{"chemical-structure": "CC(C)n1c(/C=C/[C@@H](O)C[C@@H](O)CC(=O)O)c(-c2ccc(F)cc2)c2ccccc21", "viability / %": 71.3}
{"chemical-structure": "CC/C(=C(\\c1ccccc1)c1ccc(OCCN(C)C)cc1)c1ccccc1", "viability / %": 97.1}

## Input May I ask what viability has been recorded for O=C(CCCCCCC(=O)Nc1ccccc1)NO ?
## Output 114

## Input // viability lookup, key: O=C(CCc1ccc(O)cc1)c1c(O)cc(O)cc1O
## Output 123

---

assay-name: stimulators of insulin release from INS-1E, primary screen, cell-based, 5 mM glucose, NPC library (AID 1117329); further: reference of the scale not given here
stated-conditions: rat INS-1E insulin secretion, at 10 µM, active compounds read high
reported-metric: insulin secretion stimulation (%)
Record the value in %, omitting the unit from your answer.

Example entries begin here.
{"compound": "O=C(O)c1nc(=O)[nH]c(=O)[nH]1", "reported-metric": "insulin secretion stimulation", "unit-of-measurement": "%", "observed-measurement": -2.5}
{"compound": "C[S+](CC[C@H](N)C(=O)O)C[C@H]1O[C@@H](n2cnc3c(N)ncnc32)[C@H](O)[C@H]1O (stereo partly drawn)", "reported-metric": "insulin secretion stimulation", "unit-of-measurement": "%", "observed-measurement": 1.55}
{"compound": "NC(=O)C1(N2CCCCC2)CCN(CCCC(=O)c2ccc(F)cc2)CC1", "reported-metric": "insulin secretion stimulation", "unit-of-measurement": "%", "observed-measurement": -0.5}

## Input Item under review: C/C(=C(\CCOP(=O)(O)O)SC(=O)c1ccccc1)N(C=O)Cc1cnc(C)nc1N . Reported insulin secretion stimulation?
## Output 1.6

## Input Requested field: insulin secretion stimulation. Item: CC(C(=O)O)c1ccc(C(=O)c2ccccc2)s1 (stereo not drawn)
## Output -2

## Input Data request, read-out insulin secretion stimulation, for O=c1[nH]c2cc(C(F)(F)F)c(N3CCOCC3)cc2n(CP(=O)(O)O)c1=O
## Output 0.85

## Input Which insulin secretion stimulation reading was recorded for the compound CC(=O)NCc1c(I)c(NC(C)=O)c(I)c(C(=O)O)c1I ?
## Output -0.4

## Input Please give the measured insulin secretion stimulation for this compound: Cc1cccc(C)c1NC(=O)CC12CCCN1CCC2
## Output 0.3

---

assay-name: inhibition of 3D7 malaria parasite growth – strain 3D7 (AID 2306);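 further: 0% = DMSO wells and 100% = chloroquine plus artemisinin control wells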
stated-conditions: P. falciparum 3D7 erythrocytic growth, LDH absorbance, 72 h; at 2 µM; active compounds read high
Measured growth inhibition accompanies every entry in the list below.
State just the number; it will be interpreted in %.

Consider the worked cases shown below.
{"molecule": "CN1CCCN(Cc2ccc(-c3cccc(NC(=O)c4ccc(F)cc4)c3)cc2)CC1", "unit-of-measurement": "%", "growth inhibition": 89}
{"molecule": "Nc1nc(NCC2CCC(CNS(=O)(=O)c3cccc4ccccc34)CC2)nc2ccccc12 (stereo not given)", "unit-of-measurement": "%", "growth inhibition": 97}
{"molecule": "Cc1ccc(NCc2cccc(F)c2)cc1S(=O)(=O)N[C@@H]1CCN(C#N)C1", "unit-of-measurement": "%", "growth inhibition": 89}
{"molecule": "COc1ccc(CCn2c(=N)c(C(=O)NCc3cccnc3)cc3c(=O)n4cccc(C)c4nc32)cc1", "unit-of-measurement": "%", "growth inhibition": 92}
{"molecule": "CC(C)(C)C1CCc2nc(N)nc(N)c2C1 (stereo not given)", "unit-of-measurement": "%", "growth inhibition": 94}

Kindly review the next molecule as well.
## Input Consider the molecule shown here: CCOc1ccc(-c2nc3ccc(-c4nc5ccc(N6CCN(C)CC6)cc5[nH]4)cc3[nH]2)cc1 What is its recorded growth inhibition?
## Output 100

Measured values drawn from PubChem BioAssay for this set.
